System: morningglory (Ipomoea coccinea)
Assay: Test B pre-/postemergence plant response
Format: in vivo
Settings: Postemergence, 31 g ai/ha; 0 to 100 scale (0 no effect, 100 complete control)
Plant response rating, Morningglory for assorted compounds
Output spec: single numeric token, no unit.

Recorded results for 3 compounds are shown here.
[
  {
    "compound": "CCn1c(-c2cccc(F)c2)ncc(C(=O)C2=C(O)C3CCC(C3)C2=O)c1=O (stereo not shown)",
    "quantitative_result": 60
  },
  {
    "compound": "CCCn1c(-c2ccccc2)ncc(C(=O)C2=C(O)C3CCC(C3)C2=O)c1=O (stereo not shown)",
    "quantitative_result": 98
  },
  {
    "compound": "O=C1CCCC(O)=C1C(=O)c1cnc(-c2ccsc2)n(C2CCOCC2)c1=O",
    "quantitative_result": 95
  }
]

Now for the compound whose Plant response rating, Morningglory we want.
QUERY: Reported Plant response rating, Morningglory, compound `CCCn1c(-c2cccc(F)c2)ncc(C(=O)C2=C(O)CCCC2=O)c1=O` : ____
RESULT: 65

###

System: velvetleaf (Abutilon theophrasti)
Assay: Test B pre-/postemergence plant response
Type: in vivo
Settings: Preemergence, 125 g ai/ha; 0 to 100 scale
attribute_measured: Velvetleaf plant response rating
Output spec: single numeric token, no unit.

Recorded results for 4 molecules are shown here.
[
  {
    "compound_string": "O=C1CCCC(O)=C1C(=O)c1cnc(-c2ccccc2)n(-c2ccccc2)c1=O",
    "quantitative_result": 100
  },
  {
    "compound_string": "Cc1cccc(-n2c(-c3cccc(Cl)c3)ncc(C(=O)C3=C(O)CCCC3=O)c2=O)c1",
    "quantitative_result": 85
  },
  {
    "compound_string": "Cc1cc(F)ccc1-n1c(-c2ccccc2)ncc(C(=O)C2=C(O)CCCC2=O)c1=O",
    "quantitative_result": 100
  },
  {
    "compound_string": "Cc1ccc(C)c(-n2c(-c3ccccc3)ncc(C(=O)C3=C(O)CCCC3=O)c2=O)c1",
    "quantitative_result": 100
  }
]

Now for the molecule whose Velvetleaf plant response rating we want.
QUERY: Reported Velvetleaf plant response rating, molecule `O=C1CCCC(O)=C1C(=O)c1cnc(-c2ccccc2)n(-c2ccc(F)cc2)c1=O` : ____
RESULT: 100

###

Plant response rating, Wheat for assorted molecules
Tested on: wheat (Triticum aestivum)
Assay: Test A pre-/postemergence plant response
Type: in vivo
Settings: Preemergence, 500 g ai/ha; 0 to 100 scale, 0 = no effect, 100 = complete control

Recorded results for 3 molecules are shown here.
[
  {
    "molecule": "Cc1ccc(Cl)cc1-n1c(-c2cccc(Cl)c2)ncc(C(=O)C2=C(O)CCCC2=O)c1=O [Compound 148]",
    "target_of_assay": "wheat (Triticum aestivum)",
    "Plant response rating, Wheat": 0
  },
  {
    "molecule": "O=C(C1=C(O)C2CCC(C2)C1=O)c1cnc(-c2cc(F)cc(F)c2)n(-c2ccccc2)c1=O (stereo not shown) [Compound 246]",
    "target_of_assay": "wheat (Triticum aestivum)",
    "Plant response rating, Wheat": 50
  },
  {
    "molecule": "O=C(C1=C(O)C2CCC(C2)C1=O)c1cnc(-c2ccccc2)n(C2CCCCCCCCCCC2)c1=O (stereo not shown) [Compound 247]",
    "target_of_assay": "wheat (Triticum aestivum)",
    "Plant response rating, Wheat": 0
  }
]

Now for the molecule whose Plant response rating, Wheat we want.
QUERY: Reported Plant response rating, Wheat, molecule Cc1cccc(-c2ncc(C(=O)C3=C(O)CCCC3=O)c(=O)n2-c2ccc(F)cc2C)c1 [Compound 192] : ____
RESULT: 20
